target.system: Sodium-dependent dopamine transporter (Homo sapiens, UniProt Q01959)
Sequence (Q01959 whole entry): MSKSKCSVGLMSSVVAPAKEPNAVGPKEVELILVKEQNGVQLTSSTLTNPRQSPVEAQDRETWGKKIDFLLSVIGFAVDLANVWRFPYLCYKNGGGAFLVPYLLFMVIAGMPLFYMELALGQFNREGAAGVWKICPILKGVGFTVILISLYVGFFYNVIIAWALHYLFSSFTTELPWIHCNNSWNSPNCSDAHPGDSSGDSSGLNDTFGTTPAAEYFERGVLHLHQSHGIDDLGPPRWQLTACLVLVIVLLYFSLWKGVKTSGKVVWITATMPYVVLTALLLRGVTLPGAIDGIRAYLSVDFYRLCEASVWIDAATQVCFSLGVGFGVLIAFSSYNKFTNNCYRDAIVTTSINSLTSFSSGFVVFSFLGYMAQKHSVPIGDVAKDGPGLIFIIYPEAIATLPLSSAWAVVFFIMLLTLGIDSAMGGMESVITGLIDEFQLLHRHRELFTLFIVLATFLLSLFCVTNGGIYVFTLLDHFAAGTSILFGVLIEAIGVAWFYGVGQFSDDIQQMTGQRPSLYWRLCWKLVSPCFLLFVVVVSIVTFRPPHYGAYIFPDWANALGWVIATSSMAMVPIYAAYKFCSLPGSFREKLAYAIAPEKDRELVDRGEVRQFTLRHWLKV
protocol.description: Ratio of the IC50 value of Mazindol to that in guinea pig was determined
Type: functional
protocol.conditions: Cavia porcellus; target entry is the homologue from another species
// values below are reported Ratio
Output spec: single numeric token, no unit.

Some compounds with recorded Ratio:
>>> print(df.to_string())
                                   compound  measurement_name  recorded_measurement
0  OC1(c2ccc(Cl)cc2)c2ccc3ccccc3c2C2=NCCCN21 (centres undefined)             Ratio                  20.3
1  OC1(c2ccc(Cl)cc2)c2c(ccc3ccccc23)C2=NCCN21 (centres undefined)             Ratio                   0.2

Qu. Reported Ratio for OC1(c2ccc(Cl)cc2)c2ccccc2C2=N[C@@H]3CCCC[C@@H]3N21 (some centres undefined) : what is it?
Ans. 5.1

Qu. Fill in: Ratio of OC1(c2ccc(Cl)cc2)c2cc3ccccc3cc2C2=NCCN21 (centres undefined) is ___
Ans. 1.3

Qu. Ratio for OC1(c2ccc3ccccc3c2)c2ccc3ccccc3c2C2=NCCN21 (centres undefined) ?
Ans. 13

Qu. Any idea what Ratio was measured for OC1(c2ccc(Cl)cc2)c2ccc3ccccc3c2C2=NCCN21 (centres undefined) ?
Ans. 4

---

target.system: Sodium-dependent dopamine transporter (Rattus norvegicus, UniProt P23977)
Sequence (P23977 whole entry): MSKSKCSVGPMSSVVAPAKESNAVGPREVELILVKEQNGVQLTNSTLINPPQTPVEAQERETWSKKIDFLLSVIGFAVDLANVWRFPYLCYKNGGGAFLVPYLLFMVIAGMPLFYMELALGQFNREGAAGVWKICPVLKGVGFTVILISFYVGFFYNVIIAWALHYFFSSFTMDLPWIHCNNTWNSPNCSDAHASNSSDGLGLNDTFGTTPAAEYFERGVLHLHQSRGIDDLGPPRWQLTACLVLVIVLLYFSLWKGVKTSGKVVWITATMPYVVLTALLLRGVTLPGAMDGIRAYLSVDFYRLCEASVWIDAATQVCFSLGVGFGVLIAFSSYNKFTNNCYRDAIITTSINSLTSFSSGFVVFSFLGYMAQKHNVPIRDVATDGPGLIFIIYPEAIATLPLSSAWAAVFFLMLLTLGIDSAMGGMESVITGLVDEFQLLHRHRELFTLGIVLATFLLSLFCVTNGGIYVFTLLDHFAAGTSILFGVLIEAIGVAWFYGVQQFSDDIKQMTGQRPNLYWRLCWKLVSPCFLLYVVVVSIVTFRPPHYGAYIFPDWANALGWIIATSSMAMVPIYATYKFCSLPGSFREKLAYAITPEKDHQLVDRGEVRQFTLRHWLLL
protocol.description: Ability to displace [3H]WIN-35428 from dopamine transporter on rat striatal membrane.
measurement.name: IC50 (nM)
Express your answer in nM, writing the number without its unit.

Qu. Sodium-dependent dopamine transporter (Rattus norvegicus, UniProt P23977) / IC50 / OC1(c2ccc(Cl)cc2)c2ccccc2C2=N[C@H]3CCCC[C@@H]3N21 (stereo partly specified) : value?
Ans. 34.2

---

These records show Ki for Sodium-dependent dopamine transporter (Homo sapiens, UniProt Q01959).
Your answer is read as nM, so omit the unit and give the number.

Worked set:
>>> print(df.to_string())
                                   compound  measurement_name  units_of_measure  recorded_measurement
0  OC1(c2ccc(Cl)cc2)c2ccc3ccccc3c2C2=NCCCN21 (stereo unspecified)                Ki                nM                  2.01
1  OC1(c2ccc3ccccc3c2)c2ccccc2C2=NCCN21 (stereo unspecified)                Ki                nM                    45
2  OC1(c2ccc3ccccc3c2)c2ccc3ccccc3c2C2=NCCN21 (stereo unspecified)                Ki                nM                  2.83
3  OC1(c2ccc(Cl)cc2)c2ccccc2C2=N[C@H]3CCCC[C@@H]3N21 (stereo partly specified)                Ki                nM                   152

Qu. Given the entry OC1(c2ccc(Cl)cc2)c2ccccc2C2=NCCCN21 (stereo unspecified) , report its measured Ki.
Ans. 1.7

Qu. I would be grateful if you could share the reported Ki for OC1(c2ccc(Cl)cc2)c2ccc3ccccc3c2C2=NCCN21 (stereo unspecified) .
Ans. 27.2

---

protocol.description: Ratio of the IC50 against DAT in rat striatal membranes to that of guinea pig striatal membranes.
Assay type: cell membranes
protocol.conditions: Membrane
measurement.name: Ratio

Look over these answered cases.
                                   molecule  recorded_measurement
0  OC1(c2ccc3ccccc3c2)c2ccc3ccccc3c2C2=NCCN21 (stereo not given)                  11.6
1  OC1(c2ccc(Cl)cc2)c2ccc3ccccc3c2C2=NCCCN21 (stereo not given)                  17.8
2  OC1(c2ccc3ccccc3c2)c2ccccc2C2=NCCN21 (stereo not given)                   5.7
3  OC1(c2ccc(Cl)cc2)c2ccc3ccccc3c2C2=NCCN21 (stereo not given)                   1.5

Next item in the queue.
Qu. Ratio lookup needed for OC1(c2ccc(Cl)cc2)c2ccccc2C2=N[C@H]3CCCC[C@@H]3N21 (stereo not given in full) , thanks.
Ans. 12.7
